Consider the following compounds; for each one, report its AC50.
- target.desc: Dual specificity tyrosine-phosphorylation-regulated kinase 1A (Rattus norvegicus, UniProt Q63470)
- Assay type: biochemical, Homo sapiens
The source made the active and inactive calls.

Input O=C(Nc1cccc(-c2nn[nH]n2)c1)c1ccc(Br)s1 . Output AC50: 875 nM (active)

Input CC(=O)Nc1ccc(SCc2ncc(-c3ccccc3)o2)cc1 . Output AC50: 4260 nM (active)

Input NNc1nc2c(Cl)ccc(Cl)c2s1 . Output AC50: 905 nM (active)

Input O=[N+]([O-])c1ccccc1-c1cc(-c2ccccc2O)n[nH]1 . Output AC50: 7590 nM (active)

Input N#C/C(=C/c1ccc(O)c(O)c1)c1nc2ccccc2[nH]1 . Output AC50: 2060 nM (active)

Input CN(C)CCNc1ccc(CO)c2oc3ccc(O)cc3c(=O)c12 . Output AC50: 8030 nM (active)

Input N/C(=N\N=C/c1ccc(-c2ccc(O)c(C(=O)O)c2)o1)N[N+](=O)[O-] . Output AC50: 1130 nM (active)

###

- target.desc: 26S proteasome non-ATPase regulatory subunit 14 (Homo sapiens)
- Sequence (O00487 whole entry): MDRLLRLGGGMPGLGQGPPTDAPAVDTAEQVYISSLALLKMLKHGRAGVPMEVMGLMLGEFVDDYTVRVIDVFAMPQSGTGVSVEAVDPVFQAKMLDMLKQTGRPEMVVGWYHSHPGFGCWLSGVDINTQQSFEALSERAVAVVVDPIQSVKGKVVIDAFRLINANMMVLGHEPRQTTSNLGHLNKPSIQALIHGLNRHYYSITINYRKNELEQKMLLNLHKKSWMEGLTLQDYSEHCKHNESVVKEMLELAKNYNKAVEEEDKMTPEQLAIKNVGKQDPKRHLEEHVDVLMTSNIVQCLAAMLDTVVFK
- assay.info: inhibition of proteasome subunit RPN11 – biochemical, fluorescence polarization, uHTS hits, confirmation (AID 602368)
- Format: functional
Activity calls are given as the source filed them.
Consider the following molecules; for each one, report its IC50.

Input COc1ccc(/C=C2\SC(=S)N(CCCC(=O)Nc3cccc(C(=O)O)c3)C2=O)cc1OC . Output IC50: 17.7 µM (active)

Input CCN(CC)c1ccc(/C=C2\C(=O)N(c3nnc(C)c(O)n3)N=C2C)cc1 . Output IC50: 49.4 µM (active)

Input CCCCCCCCCCCC1NC(N)=NC(CCCO)=C1C(=O)OC (centres undefined) . Output IC50: 19.9 µM (active)

Input CCCN1C(=O)/C(=C/c2c(NCCCOC(C)C)nc3c(C)cccn3c2=O)SC1=S . Output IC50: 0.09 µM (active)

###

- target.desc: Caspase-3 (Homo sapiens, UniProt P42574);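 note: Dose-response selectivity test against caspase-3 for candidate inhibitors of sentrin-specific proteases (SENPs)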
- Sequence (P42574 29-175 limits assumed): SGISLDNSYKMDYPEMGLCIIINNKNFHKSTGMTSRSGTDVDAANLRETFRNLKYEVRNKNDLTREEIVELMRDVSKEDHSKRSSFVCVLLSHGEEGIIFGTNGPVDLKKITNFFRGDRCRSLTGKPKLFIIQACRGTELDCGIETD
- Sequence (P42574 176-277 limits assumed): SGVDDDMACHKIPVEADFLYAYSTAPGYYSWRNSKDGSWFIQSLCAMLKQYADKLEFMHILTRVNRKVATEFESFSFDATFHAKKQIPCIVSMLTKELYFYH
- Assay type: functional
Calls of active or inactive are those of the source.
metric: IC50

Input O=C1/C(=C/c2cccc(F)c2)Oc2cc(O)ccc21 . Output IC50: 18.2 µM (active)

Input CCOc1ccc2nc(NC(=O)Cc3cccs3)sc2c1 . Output IC50: 22.9 µM (active)

Input COc1cc(OC)cc(C(=O)Nc2ccc(Nc3ccccc3)cc2)c1 . Output IC50: 30.3 µM (active)

Input Cc1nc(Nc2ccc(C(=O)O)cc2)sc1-c1ccccc1 . Output IC50: 10.9 µM (active)

Input CC(=O)N(/N=C1\Sc2ccccc2C1=O)c1ccccc1C . Output IC50: 42.2 µM (active)

Input CCN(CC)c1ccc(Nc2nc(-c3cccnc3)cs2)cc1 . Output IC50: 21.5 µM (active)

###

- target.desc: Estrogen receptor (Homo sapiens);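 note: potency for inhibiting coactivator peptide recruitment to the receptor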
- Sequence (P03372 whole entry): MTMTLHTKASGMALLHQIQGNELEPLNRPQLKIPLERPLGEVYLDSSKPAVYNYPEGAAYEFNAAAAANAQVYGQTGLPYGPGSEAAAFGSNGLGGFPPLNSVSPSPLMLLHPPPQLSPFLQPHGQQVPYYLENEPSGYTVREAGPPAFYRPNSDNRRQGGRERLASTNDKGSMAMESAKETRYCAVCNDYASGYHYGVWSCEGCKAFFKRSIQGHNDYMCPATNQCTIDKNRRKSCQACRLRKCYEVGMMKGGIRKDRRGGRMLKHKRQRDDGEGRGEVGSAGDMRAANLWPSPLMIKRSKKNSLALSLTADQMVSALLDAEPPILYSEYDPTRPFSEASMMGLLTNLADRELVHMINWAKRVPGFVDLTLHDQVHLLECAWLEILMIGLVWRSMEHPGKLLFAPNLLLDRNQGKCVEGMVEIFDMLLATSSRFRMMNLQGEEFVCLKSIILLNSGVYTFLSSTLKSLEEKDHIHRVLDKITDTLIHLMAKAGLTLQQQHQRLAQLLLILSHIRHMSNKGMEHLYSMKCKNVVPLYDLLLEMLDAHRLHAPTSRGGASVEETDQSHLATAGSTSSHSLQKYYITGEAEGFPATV
Calls of active or inactive are those of the source.
Consider the following compounds; for each one, report its IC50.

Input CCOCCCNC(=O)c1cnc2ccc(S(=O)(=O)Nc3cccc(OC)c3)cc2c1O . Output IC50: 35.2 µM (not active)

Input CCN1C(=O)/C(=C2/Sc3ccc(OC)cc3N2C)S/C1=N\c1cccc(O)c1 . Output IC50: > 50 µM (not active)

Input Cc1cccc2cc(C(c3nnnn3C(C)(C)C)N(Cc3ccco3)CC3CCCO3)c(=O)[nH]c12 (centres undefined) . Output IC50: 13.3 µM (active)

Input Cc1ccc2c(c1)N(CC(=O)NC1CCCc3ccccc31)C(=O)CO2 (centres undefined) . Output IC50: > 50 µM (not active)
